The origin of these recorded values is paper PMC12120022.

The following compounds are listed with their measured Ki values.
Molecular target: EcPBP3 (Escherichia coli, UniProt P0AD68)
Construct: For assays, selections and SPR a construct with residues 60–588 which has the N-terminal domain, but not the transmembrane helix, was used; made in house
Sequence (P0AD68 60-588): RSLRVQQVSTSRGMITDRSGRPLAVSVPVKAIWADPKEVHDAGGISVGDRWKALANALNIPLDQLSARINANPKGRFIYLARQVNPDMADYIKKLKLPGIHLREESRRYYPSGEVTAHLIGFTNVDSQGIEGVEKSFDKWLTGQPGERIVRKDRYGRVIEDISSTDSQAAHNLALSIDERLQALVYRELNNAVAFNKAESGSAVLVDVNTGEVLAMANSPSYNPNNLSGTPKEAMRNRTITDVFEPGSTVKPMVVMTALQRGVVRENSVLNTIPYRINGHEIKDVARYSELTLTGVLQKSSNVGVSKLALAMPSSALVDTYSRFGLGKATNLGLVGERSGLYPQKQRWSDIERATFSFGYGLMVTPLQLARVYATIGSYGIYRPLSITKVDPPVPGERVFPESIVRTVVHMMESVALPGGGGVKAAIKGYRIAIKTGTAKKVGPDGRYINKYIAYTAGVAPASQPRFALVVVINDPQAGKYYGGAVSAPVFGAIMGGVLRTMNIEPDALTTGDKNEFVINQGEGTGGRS
Experiment: Fluorescence polarisation competition assay with fluorescent Bicycle tracer (tracer 1 / BCY12820)
Assay type: binding
Conditions: protein 9.4 nM sets sensitivity limit, top concentration 5 µM, read-out: Ki (nM) by fluorescence polarisation with tracer 1 (BCY12820 as tracer), Geometric mean (Lower 95% CI; Upper 95% CI, n=number of values)
Procedure: Competition fluorescence polarisation assays were run by observing the fluorescence polarisation of a fluorescent “tracer” Bicycle molecule which competes against an unlabelled peptide for binding to the EcPBP3 target. […] The plate was incubated for 1 h at 25 °C and then read in a PHERAstar FS (BMG) using with an “FP 485 520 520” optic module (excitation 485 nm, emission 520 nm). The gain was determined immediately prior to the read on a tracer-only well. […]
Answer with a number only, understood to be in nM.

# compound, Ki [nM]
rows = [
    ("CC(C)[C@@H]1NC(=O)[C@H](Cc2c[nH]c3ccccc23)NC(=O)[C@@H]2CCCN2C(=O)[C@@H]2CSCCC(=O)N3CN(CN(C3)C(=O)CCSC[C@@H](C(=O)N[C@@H](C)C(N)=O)NC(=O)[C@H](C)NC(=O)[C@H](CCC(=O)O)NC1=O)C(=O)CCSC[C@H](NC(=O)[C@H](C)N)C(=O)N[C@@H](CO)C(=O)N[C@@H](Cc1ccccc1)C(=O)N1CCC[C@H]1C(=O)N[C@@H](CCCCN)C(=O)N2 [Peptide 24]", 25.5),
]

Please find the next compound below.
Recorded result, CC(C)[C@@H]1NC(=O)[C@H](Cc2c[nH]c3ccccc23)NC(=O)[C@@H]2CCCN2C(=O)[C@@H]2CSCCC(=O)N3CN(CN(C3)C(=O)CCSC[C@H](NC(=O)[C@H](C)N)C(=O)N[C@@H](CO)C(=O)N[C@@H](Cc3ccccc3)C(=O)N[C@@H](C)C(=O)N[C@@H](CCCCN)C(=O)N2)C(=O)CCSC[C@@H](C(=O)N[C@@H](C)C(N)=O)NC(=O)CNC(=O)[C@H](CCC(=O)O)NC1=O [Peptide 18] , Ki: 76.9

----------
Biological target: EcPBP3 (Escherichia coli, UniProt P0AD68)
Construct: For assays, selections and SPR a construct with residues 60–588 which has the N-terminal domain, but not the transmembrane helix, was used; made in house
Assay: SPR binding assay on immobilised EcPBP3
Conditions: 37 °C, kinetic fitting; NB = no binding at 2500 nM (Tables S-4, S-5) or 5000 nM (Table 1); read-out: Kd (nM) by SPR (geomean)
assayEndpoint: Kd (nM)
Answer with a number only, understood to be in nM.

Reported Kd (EcPBP3 (Escherichia coli, UniProt P0AD68)) for entry COc1ccc2[nH]cc(C[C@@H]3NC(=O)[C@@H]4CCCN4C(=O)[C@@H]4CSCCC(=O)N5CN(CN(C5)C(=O)CCSC[C@H](NC(=O)[C@H](C)N)C(=O)N[C@@H](CO)C(=O)N[C@@H](Cc5ccccc5)C(=O)N5CCC[C@H]5C(=O)N[C@@H](CCCCN)C(=O)N4)C(=O)CCSC[C@@H](C(=O)N[C@@H](C)C(N)=O)NC(=O)CNC(=O)[C@H](CCC(=O)O)NC(=O)[C@H](C(C)C)NC3=O)c2c1 [Peptide 63] is 175

Reported Kd (EcPBP3 (Escherichia coli, UniProt P0AD68)) for entry CC(C)[C@@H]1NC(=O)[C@H](Cc2c[nH]c3ccccc23)NC(=O)[C@@H]2CCCN2C(=O)[C@@H]2CSCCC(=O)N3CN(CN(C3)C(=O)CCSC[C@H](NC(=O)[C@H](C)N)C(=O)N[C@@H](CO)C(=O)N[C@@H](Cc3ccccc3F)C(=O)N3CCC[C@H]3C(=O)N[C@@H](CCCCN)C(=O)N2)C(=O)CCSC[C@@H](C(=O)N[C@@H](C)C(N)=O)NC(=O)CNC(=O)[C@H](CCC(=O)O)NC1=O [Peptide 56] is 56.6

Reported Kd (EcPBP3 (Escherichia coli, UniProt P0AD68)) for entry CC(C)[C@@H]1NC(=O)[C@H](Cc2c[nH]c3ccccc23)NC(=O)[C@@H]2CCCN2C(=O)[C@@H]2CSCCC(=O)N3CN(CN(C3)C(=O)CCSC[C@H](NC(=O)[C@H](C)N)C(=O)N[C@@H](CO)C(=O)N[C@@H](Cc3ccccc3)C(=O)N[C@@H](C)C(=O)N[C@@H](CCCCN)C(=O)N2)C(=O)CCSC[C@@H](C(=O)N[C@@H](C)C(N)=O)NC(=O)CNC(=O)[C@H](CCC(=O)O)NC1=O [Peptide 18] is 178

----------
Biological target: EcPBP3 (Escherichia coli, UniProt P0AD68)
Construct: For assays, selections and SPR a construct with residues 60–588 which has the N-terminal domain, but not the transmembrane helix, was used; made in house
Experiment: SPR binding assay on immobilised EcPBP3
Details: 37 °C, kinetic fitting; NB = no binding at 2500 nM (Tables S-4, S-5) or 5000 nM (Table 1); read-out: Kd (nM) by SPR (geomean)
The following molecules are listed with their measured Kd values.
Answer with a number only, understood to be in nM.

# molecule, Kd / nM
data = [
    ("CC(C)[C@@H]1NC(=O)[C@H](Cc2c[nH]c3ccccc23)NC(=O)[C@@H]2CCCN2C(=O)[C@@H]2CSCCC(=O)N3CN(CN(C3)C(=O)CCSC[C@H](NC(=O)[C@H](C)N)C(=O)N[C@@H](CO)C(=O)N[C@@H](Cc3ccccc3)C(=O)N3CCC[C@H]3C(=O)N[C@@H](CCCCN)C(=O)N2)C(=O)CCSC[C@@H](C(=O)N[C@@H](C)C(N)=O)NC(=O)CNC(=O)[C@H](C)NC1=O [Peptide 23]", 6.71),
    ("CC(C)[C@@H]1NC(=O)[C@H](Cc2c[nH]c3ccccc23)NC(=O)[C@@H]2CCCN2C(=O)[C@@H]2CSCCC(=O)N3CN(CN(C3)C(=O)CCSC[C@H](NC(=O)[C@H](C)N)C(=O)N[C@@H](CO)C(=O)N[C@@H](Cc3cccc(F)c3)C(=O)N3CCC[C@H]3C(=O)N[C@@H](CCCCN)C(=O)N2)C(=O)CCSC[C@@H](C(=O)N[C@@H](C)C(N)=O)NC(=O)CNC(=O)[C@H](CCC(=O)O)NC1=O [Peptide 55]", 16.8),
]

Recorded result, CC(C)[C@@H]1NC(=O)[C@H](Cc2c[nH]c3ccccc23)NC(=O)[C@@H]2CCCN2C(=O)[C@@H]2CSCCC(=O)N3CN(CN(C3)C(=O)CCSC[C@H](NC(=O)[C@H](C)N)C(=O)N[C@@H](CO)C(=O)N[C@@H](CCc3ccccc3)C(=O)N3CCC[C@H]3C(=O)N[C@@H](CCCCN)C(=O)N2)C(=O)CCSC[C@@H](C(=O)N[C@@H](C)C(N)=O)NC(=O)CNC(=O)[C@H](CCC(=O)O)NC1=O [Peptide 61] , Kd: 232

----------
The following compounds are listed with their measured half-life at 5 μM values.
Assay: Mouse blood stability
Type: in vitro ADME, CD-1 mice
Conditions: CD-1, mouse, whole blood (EDTA as anticoagulant), 37 °C, SAR peptides, read-out: Blood stability (t1/2) (converted)
*1 amine or outer side, *2 acyl side, *3 side chain or, on linkers, in order; H or OH if unused. Where a SMILES comes first, the peptide text is derived from it. Bridges are numbered along the chain shown (N, C = ends). [ ]: non-standard residue; d: D form. TATA = O=C(CC[*:1])N1CN(C(=O)CC[*:2])CN(C(=O)CC[*:3])C1; Trp(6-Cl) = N[C@@H](Cc1c[nH]c2cc(Cl)ccc12)C(=O)O; hArg = N=C(N)NCCCC[C@H](N)C(=O)O
Express your answer as a number followed by its unit.

# compound, assayEndpoint, result
records = [
    ("CC(=O)N[C@@H](C)C(=O)N[C@H]1CSCCC(=O)N2CN3CN(C2)C(=O)CCSC[C@H](NC(=O)[C@H](CCCCNC(=N)N)NC(=O)[C@@H]2CCCN2C(=O)[C@H](Cc2ccccc2)NC(=O)[C@H](CO)NC1=O)C(=O)N1CCC[C@H]1C(=O)N[C@@H](Cc1c[nH]c2ccccc12)C(=O)N[C@@H](C(C)C)C(=O)N[C@@H](CCC(=O)O)C(=O)NCC(=O)N[C@H](C(=O)N[C@@H](C)C(N)=O)CSCCC3=O [Peptide 73]", "half-life at 5 μM", "14.1 h"),
]

Please find the next compound below.
Recorded result, CC(=O)N[C@@H](C)C(=O)N[C@H]1CSCCC(=O)N2CN3CN(C2)C(=O)CCSC[C@H](NC(=O)[C@H](CCCCNC(=N)N)NC(=O)[C@@H]2CCCN2C(=O)[C@H](Cc2ccccc2)NC(=O)[C@H](CO)NC1=O)C(=O)N1CCC[C@H]1C(=O)N[C@@H](Cc1c[nH]c2cc(Cl)ccc12)C(=O)N[C@@H](C(C)C)C(=O)N[C@@H](CCC(=O)O)C(=O)NCC(=O)N[C@H](C(=O)N[C@@H](C)C(N)=O)CSCCC3=O [Peptide 75, [-Ac]ACSFP[HArg]CP[6ClTrp]VEGCA] (Ac-ACSFP[hArg]CP[Trp(6-Cl)]VEGCA-NH2; linker 2-7-13 via TATA) , half-life at 5 μM: 11.4 h
